test system: Escherichia coli; experiment: Antimicrobial activity against Escherichia coli at 1 umol/disk after 24 hrs by disk diffusion assay; type: functional
Calls of active or inactive are those of the source. The rule behind the calls is not given here.
READOUT_TYPE: inhibition zone (IZ)

>>> measured("N#Cc1c(-c2ccc(Cl)cc2)cc(-c2ccc(Nc3nc(Nc4ccccc4)nc(Nc4ccccc4)n3)cc2)nc1N")
"0.04 millimeter"
>>> measured("COc1ccccc1/C=C/C(=O)c1ccc(Nc2nc(Nc3ccccc3)nc(Nc3ccccc3)n2)cc1")
"inactive"
>>> measured("O=C(/C=C/c1ccco1)c1ccc(Nc2nc(Nc3ccccc3)nc(Nc3ccccc3)n2)cc1")
"0.04 millimeter"
>>> measured("COc1ccccc1-c1cc(-c2ccc(Nc3nc(Nc4ccccc4)nc(Nc4ccccc4)n3)cc2)nc(N)c1C#N")
"0.04 millimeter"

Enquiry: // Input: `Nc1nc(-c2ccc(Nc3nc(Nc4ccccc4)nc(Nc4ccccc4)n3)cc2)cc(-c2ccc([N+](=O)[O-])cc2)n1` . Output its inhibition zone (IZ) only.
Return: inactive

Enquiry: // Input: `O=C(/C=C/c1ccc([N+](=O)[O-])cc1)c1ccc(Nc2nc(Nc3ccccc3)nc(Nc3ccccc3)n2)cc1` . Output its inhibition zone (IZ) only.
Return: 0.03 millimeter

Enquiry: // Input: CC1(C)S[C@@H]2[C@H](NC(=O)[C@H](N)c3ccccc3)C(=O)N2[C@H]1C(=O)O [AMPICILLIN] . Output its inhibition zone (IZ) only.
Return: 0.02 millimeter

###

test system: Pseudomonas aeruginosa; assay: Antimicrobial activity against Pseudomonas aeruginosa at 1 umol/disk after 24 hrs by disk diffusion assay; assay type: functional
The source made the active and inactive calls. No cut-off for these calls is given here.
READOUT_TYPE: inhibition zone (IZ)

Observe how each entry below is paired with its result.
>>> measured("Nc1nc(-c2ccc(Nc3nc(Nc4ccccc4)nc(Nc4ccccc4)n3)cc2)cc(-c2ccc([N+](=O)[O-])cc2)n1")
"inactive"
>>> measured("CN[C@@H]1[C@H](O[C@H]2[C@H](O[C@H]3[C@H](O)[C@@H](O)[C@H](N=C(N)N)[C@@H](O)[C@@H]3N=C(N)N)O[C@@H](C)[C@]2(O)C=O)O[C@@H](CO)[C@H](O)[C@H]1O")
"inactive"
>>> measured("Nc1nc(-c2ccc(Nc3nc(Nc4ccccc4)nc(Nc4ccccc4)n3)cc2)cc(-c2cccs2)n1")
"inactive"
>>> measured("CC(=O)N1N=C(c2ccc(Nc3nc(Nc4ccccc4)nc(Nc4ccccc4)n3)cc2)CC1c1ccco1 (configuration not stated)")
"inactive"
>>> measured("COc1ccccc1-c1cc(-c2ccc(Nc3nc(Nc4ccccc4)nc(Nc4ccccc4)n3)cc2)nc(N)n1")
"inactive"

// next entry
Enquiry: // Input: CC(=O)N1N=C(c2ccc(Nc3nc(Nc4ccccc4)nc(Nc4ccccc4)n3)cc2)CC1c1ccc([N+](=O)[O-])cc1 (configuration not stated) . Output its inhibition zone (IZ) only.
Return: inactive

###

tested on: Escherichia coli; experiment: Antimicrobial activity against Escherichia coli at 10 ug/disk after 24 hrs by disk diffusion assay; assay type: functional; conditions: read-out: IZ
READOUT_TYPE: zone of inhibition at 10 µg/disc

Enquiry: // Input: `Nc1nc(-c2ccc(Nc3nc(Nc4ccccc4)nc(Nc4ccccc4)n3)cc2)cc(-c2ccco2)n1` . Output its zone of inhibition at 10 µg/disc only.
Return: 10 mm

Enquiry: // Input: CC1(C)S[C@@H]2[C@H](NC(=O)[C@H](N)c3ccccc3)C(=O)N2[C@H]1C(=O)O [AMPICILLIN] . Output its zone of inhibition at 10 µg/disc only.
Return: 6 mm

Enquiry: // Input: CN[C@@H]1[C@H](O[C@H]2[C@H](O[C@H]3[C@H](O)[C@@H](O)[C@H](N=C(N)N)[C@@H](O)[C@@H]3N=C(N)N)O[C@@H](C)[C@]2(O)C=O)O[C@@H](CO)[C@H](O)[C@H]1O [STREPTOMYCIN] . Output its zone of inhibition at 10 µg/disc only.
Return: 10 mm

Enquiry: // Input: `COc1ccccc1-c1cc(-c2ccc(Nc3nc(Nc4ccccc4)nc(Nc4ccccc4)n3)cc2)nc(N)c1C#N` . Output its zone of inhibition at 10 µg/disc only.
Return: 7 mm

Enquiry: // Input: `O=C(/C=C/c1ccc([N+](=O)[O-])cc1)c1ccc(Nc2nc(Nc3ccccc3)nc(Nc3ccccc3)n2)cc1` . Output its zone of inhibition at 10 µg/disc only.
Return: 6 mm

Enquiry: // Input: `O=C(/C=C/c1ccco1)c1ccc(Nc2nc(Nc3ccccc3)nc(Nc3ccccc3)n2)cc1` . Output its zone of inhibition at 10 µg/disc only.
Return: 8 mm

Enquiry: // Input: `N#Cc1c(-c2ccc(Cl)cc2)cc(-c2ccc(Nc3nc(Nc4ccccc4)nc(Nc4ccccc4)n3)cc2)nc1N` . Output its zone of inhibition at 10 µg/disc only.
Return: 7 mm
